- testedTarget: T1, human factor X (human, UniProt P00742 41-179; P00742 183-488)
- T1 construct: Zymogen used as analyte in SPR; also called FX; Human FX (MW ~58 KDa)
- T1 sequence (P00742 41-179, chain 1 of 2): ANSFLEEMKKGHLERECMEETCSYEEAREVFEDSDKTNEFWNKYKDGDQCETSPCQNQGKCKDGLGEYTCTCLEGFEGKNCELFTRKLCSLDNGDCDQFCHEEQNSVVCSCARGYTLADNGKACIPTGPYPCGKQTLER
- T1 sequence (P00742 183-488, chain 2 of 2): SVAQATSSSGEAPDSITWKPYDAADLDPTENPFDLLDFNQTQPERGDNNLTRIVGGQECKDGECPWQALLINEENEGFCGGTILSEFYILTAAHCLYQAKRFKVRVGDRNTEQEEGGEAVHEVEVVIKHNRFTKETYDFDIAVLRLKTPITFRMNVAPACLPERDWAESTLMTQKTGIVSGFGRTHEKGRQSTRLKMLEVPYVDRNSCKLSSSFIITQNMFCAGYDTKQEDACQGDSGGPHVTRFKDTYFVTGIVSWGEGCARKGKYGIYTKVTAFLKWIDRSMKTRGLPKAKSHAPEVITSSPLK
- protocolDescription: SPR as in Example 10, human FX as analyte
assayMetric: pKd
Kindly note that pKd refers to -log10 of the concentration in mol/L and answer with the value alone.

Input line: Look up pKd: TINA-0200.0128 (antibody, V domains shown, Monospecific IgG4PE) VH: QVQLVQSGAEVKKPGASVKVSCKASRYSFTSYYLHWVRQAPGQGLEWMGIINPKTGDTSYAQKFQGRVTMTRDTSTTTVYMELSSLRSEDTAVYYCARDGYGSSARCLQLWGQGTLVTVSS VL: SYVLTQPPSVSVAPGETARITCGGDNIGRKSVYWYQQKSGQAPVLVIYYDSDRPSGIPERFSGSNSGNTATLTISRVEAGDEADYYCQVWDGSSDHWVFGGGTKLTVL
Output line: 5.60

Input line: Look up pKd: TINA-0666.0128 (antibody, V domains shown, Monospecific IgG) VH: QVQLIQSGAEVKKPGASVKVSCKASRYSFTSYYMHWVRQAPGQGLEWMGIINPKSGSTSYAQKFQGRVTMTRDTSTSTVYMELSSLRSEDTAVYYCARDGYGSSSRIIQLWGQGTLVTVSS VL: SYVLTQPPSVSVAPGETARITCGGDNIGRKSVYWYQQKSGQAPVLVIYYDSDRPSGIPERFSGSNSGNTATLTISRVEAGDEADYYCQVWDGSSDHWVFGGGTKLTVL
Output line: 6.03

Input line: Look up pKd: TINA-0638.0128 (antibody, V domains shown, Monospecific IgG; position is IMGT numbering, not a count on the entry) VH: QVQLIQSGAEVKKPGASVKVSCKASRYSFTSYYMHWVRQAPGQGLEWMGIINPKSGSTSYAQKFQGRVTMTRDTSTSTVYMELSSLRSEDTAVYYCARDGYGSSSRCLMLWGQGTLVTVSS VL: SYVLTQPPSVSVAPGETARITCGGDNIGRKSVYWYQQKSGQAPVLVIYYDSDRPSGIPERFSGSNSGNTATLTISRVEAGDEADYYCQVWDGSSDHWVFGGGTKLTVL
Output line: 6.48

Input line: Look up pKd: TINA-0202.0128 (antibody, V domains shown, Monospecific IgG4PE) VH: QVQLIQSGAEVQKPGASVKVSCKASRYSFTSYYMHWVRQAPGQGLEWMGIINPKSGSTSYAQKFQGRVTMTRDTSTSTVYMELSSLRSEDTAVYYCARDGYGSSSRCLQLWGQGTLVTVSS VL: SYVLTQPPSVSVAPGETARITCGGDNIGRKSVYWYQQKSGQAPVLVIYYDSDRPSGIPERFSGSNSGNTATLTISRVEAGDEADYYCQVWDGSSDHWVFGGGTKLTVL
Output line: 5.86
